- PROTOCOL NOTES: NCI Yeast Anticancer Drug Screen. Data for the mlh1 rad18 strain (AID 175)
- REPORTED CONDITIONS: S. cerevisiae mlh1 rad18 strain growth inhibition; at 50.0 µM; stronger effect = higher value
- Experimental: Growth inhibition of yeast strains with defined genetic alterations is measured as a screen for potential anti-cancer activity. Selected strains with alterations in DNA damage repair or cell cycle control were exposed to compounds and growth inhibition was measured relative to vehicle treated controls. The strain used in this assay is mlh1 rad18
About 79,000 compounds went through this panel and 15% of them were active in at least one assay; those are over-represented in the sample as a whole.
# Lookup of reported growth inhibition keyed by entry
EXPERIMENTAL ENDPOINT: growth inhibition (%)

INSERT INTO assay_data (compound, reported_value) VALUES
  ('O=C(O)C(=O)C(Cl)Br (stereo not given)', 0.65),
  ('[Fe+5].[O-][Cl+3]([O-])([O-])O.[O-]c1ccccc1C=NCCN1CC1.[O-]c1ccccc1C=NCCN1CC1', 22.2),
  ('CCNC(=O)OOC(C)(C)C', 21.7),
  ('OC(Br)C1C(c2ccccc2)N1C1CCCCC1 (stereo not given)', 7.4),
  ('OCC1N2CCC(CC2)C1(O)O (stereo not given)', -12.7);
